- STUDY SYSTEM: T1, P6-AA-1HGe-H
- T1 chain: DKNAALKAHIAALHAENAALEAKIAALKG
- ASSAY COMMENT: two-hybrid library CCmax;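 also: natural log of median RNA to DNA barcode read ratio; higher means stronger binding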
- DETAILS: mean of both orientations
Item-by-item account of interaction score

{"BINDER": "DENAALEASIAALSAKNAALKAEIAALEG [P5-AA-1HGe-S]", "interaction score": 1.75}
{"BINDER": "DENAALEAQIAALQAKNAALKAEIAALEG [P5-AA-1HGe-Q]", "interaction score": 2.05}
{"BINDER": "DENAALEAEIAALEAKNAALKAEIAALEG [O5-AA]", "interaction score": 2.44}
{"BINDER": "DENAALEADIAALDAKNAALKAEIAALEG [P5-AA-1HGe-D]", "interaction score": 0.69}
{"BINDER": "DENAALEAYIAALYAKNAALKAEIAALEG [P5-AA-1HGe-Y]", "interaction score": 1.95}
{"BINDER": "DENAALEATIAALTAKNAALKAEIAALEG [P5-AA-1HGe-T]", "interaction score": 2.03}
{"BINDER": "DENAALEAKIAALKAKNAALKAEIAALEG [4H1401-AA]", "interaction score": 1.77}
